Molecular target: LmDdi1_1–390 (LmDdi1) (Leishmania major, UniProt I7HUG0)
Construct: full-length residues 1-390 (UBL, RVP and UBA domains), synthetic gene 1170 bp, N-terminal His6 tag (pET-28a, NdeI/HindIII), E. coli BL21; Ni-NTA and gel filtration; immobilised by the tag on Ni-NTA sensor; RVP domain homodimer in crystal; PDB 5YS4 from this construct, 5YQ8 from construct 184-390
Sequence (I7HUG0 1-390): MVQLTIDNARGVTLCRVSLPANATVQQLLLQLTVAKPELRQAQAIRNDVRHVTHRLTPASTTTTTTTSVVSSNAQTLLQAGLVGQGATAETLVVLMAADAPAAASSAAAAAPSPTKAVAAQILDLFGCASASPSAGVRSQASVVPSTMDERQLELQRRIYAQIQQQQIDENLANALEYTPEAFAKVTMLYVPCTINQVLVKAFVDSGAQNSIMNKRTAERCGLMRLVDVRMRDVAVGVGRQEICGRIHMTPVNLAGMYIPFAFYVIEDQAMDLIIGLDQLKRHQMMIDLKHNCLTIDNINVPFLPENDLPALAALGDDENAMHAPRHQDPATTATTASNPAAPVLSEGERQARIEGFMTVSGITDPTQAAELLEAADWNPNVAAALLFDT
Experiment: bio-layer interferometry, protein on Ni-NTA sensor, […] Langmuir global fit
pKd: −log10 of the molar value.
Assay Metric: pKd

In [3]: df
Out[3]:
                                smiles_repr                             tested_system  assay_metric  measured_number
0  CC(C)(C)NC(=O)[C@@H]1C[C@@H]2CCCC[C@@H]2CN1C[C@@H](O)[C@H](Cc1ccccc1)NC(=O)[C@H](CC(N)=O)NC(=O)c1ccc2ccccc2n1  LmDdi1_1–390 (LmDdi1) (Leishmania major, UniProt I7HUG0)           pKd             3.50
